Target: AdipoR1 (Homo sapiens, UniProt Q96A54)
Construct: The cDNAs encoding full-length of AdipoR1 or AdipoR2 were then sub-cloned into the mammalian expression vector pBEX and pcDNA3.1–Myc-His(+); His (C); Myc (C); made in house; host or cells: CHO cells
Sequence (Q96A54 1-375): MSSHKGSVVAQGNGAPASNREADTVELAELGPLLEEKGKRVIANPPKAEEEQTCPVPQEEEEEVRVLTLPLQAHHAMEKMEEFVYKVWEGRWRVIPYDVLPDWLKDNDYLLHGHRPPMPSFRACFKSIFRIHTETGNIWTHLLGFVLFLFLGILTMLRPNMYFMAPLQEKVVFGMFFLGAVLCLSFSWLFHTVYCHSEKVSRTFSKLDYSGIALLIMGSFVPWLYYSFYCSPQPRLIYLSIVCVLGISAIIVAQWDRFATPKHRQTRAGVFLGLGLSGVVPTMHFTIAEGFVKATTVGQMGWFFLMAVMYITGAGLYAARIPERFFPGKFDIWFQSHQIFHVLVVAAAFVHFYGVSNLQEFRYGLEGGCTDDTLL
Assay: Competitive FP assay, displacement of probe 1 from AdipoR1
Type: binding
Settings: validation; 2 µM receptor, 100 nM probe 1, 30 min, 25°C; read-out: IC50 vs AdipoR1 (µM) Validated
Parameter: IC50

Returns the measured IC50 for the input molecule. Input: COc1ccc(C[C@H]2COC(=O)[C@@H]2Cc2ccc(O[C@@H]3O[C@H](CO)[C@@H](O)[C@H](O)[C@H]3O)c(OC)c2)cc1OC
1.3 µM

Next molecule up: C=C1C(=O)O[C@H]2[C@H]1CC/C(C)=C/CC[C@@]1(C)O[C@@H]21 [Compound 7, Parthenolide]
> 5 µM

Next molecule up: COc1cc(C[C@H]2COC(=O)[C@@H]2Cc2ccc(O)c(OC)c2)ccc1O
0.8 µM

Next molecule up: CN(C)Cc1c[nH]c2ccccc12
4.2 µM

Next molecule up: O=c1cc(-c2ccccc2)oc2cc(O)cc(O)c12
> 5 µM

Next molecule up: COc1cc(C[C@H]2C(=O)OC[C@@H]2Cc2ccc(OC)c(OC)c2)ccc1O [Compound 2, (-)-Arctigenin]
2.2 µM

Next molecule up: COc1cc2c(c(OC)c1OC)-c1c(cc(OC)c(OC)c1OC)C[C@H](C)[C@H](C)C2
> 5 µM

----------
target: AdipoR2 (UniProt Q86V24); assay: Competitive FP assay, displacement of probe 1 from AdipoR2; assay type: binding, human; details: read-out: IC50 vs AdipoR2 (µM) Primary screen; primary screen; 2 µM receptor, 100 nM probe 1, 30 min, 25°C
Parameter: IC50
Kindly format the answer as number then unit.

Any idea what IC50 came out for O=c1cc(-c2ccccc2)oc2cc(O)cc(O)c12 [Compound 8, Chrysin] on AdipoR2 (UniProt Q86V24)?
4.9 µM

----------
molecular target: AdipoR2 (UniProt Q86V24); test: Competitive FP assay, displacement of probe 1 from AdipoR2; type: binding, human; conditions: validation; 2 µM receptor, 100 nM probe 1, 30 min, 25°C; read-out: IC50 vs AdipoR2 (µM) Validated
Parameter: IC50 (µM)
Form entry: value (µM) — number only.

Returns the measured IC50 for the input molecule. Input: COc1cc(/C=C/CO)cc(OC)c1O[C@@H]1O[C@H](CO)[C@@H](O)[C@H](O)[C@H]1O
4.5

Next molecule up: C=C1C(=O)O[C@H]2[C@H]1CC/C(C)=C/CC[C@@]1(C)O[C@@H]21 [Compound 7, Parthenolide]
1.2

----------
Field: IC50. Provide a value for each of the molecules that follow.
molecular target: AdipoR1 (Homo sapiens); construct: The cDNAs encoding full-length of AdipoR1 or AdipoR2 were then sub-cloned into the mammalian expression vector pBEX and pcDNA3.1–Myc-His(+); His (C); Myc (C); made in house; host or cells: CHO cells; assay: Competitive FP assay, displacement of probe 1 from AdipoR1; format: binding; details: primary screen; 2 µM receptor, 100 nM probe 1, 30 min, 25°C; read-out: IC50 vs AdipoR1 (µM) Primary screen
Form entry: value (µM) — number only.

Returns the measured IC50 for the input molecule. Input: COc1ccc(C[C@H]2COC(=O)[C@@H]2Cc2ccc(O[C@@H]3O[C@H](CO)[C@@H](O)[C@H](O)[C@H]3O)c(OC)c2)cc1OC
1.2

Next molecule up: COc1cc(C[C@H]2COC(=O)[C@@H]2Cc2ccc(O)c(OC)c2)ccc1O
0.9

----------
Molecular target: AdipoR2 (UniProt Q86V24)
Sequence (Q86V24 1-386): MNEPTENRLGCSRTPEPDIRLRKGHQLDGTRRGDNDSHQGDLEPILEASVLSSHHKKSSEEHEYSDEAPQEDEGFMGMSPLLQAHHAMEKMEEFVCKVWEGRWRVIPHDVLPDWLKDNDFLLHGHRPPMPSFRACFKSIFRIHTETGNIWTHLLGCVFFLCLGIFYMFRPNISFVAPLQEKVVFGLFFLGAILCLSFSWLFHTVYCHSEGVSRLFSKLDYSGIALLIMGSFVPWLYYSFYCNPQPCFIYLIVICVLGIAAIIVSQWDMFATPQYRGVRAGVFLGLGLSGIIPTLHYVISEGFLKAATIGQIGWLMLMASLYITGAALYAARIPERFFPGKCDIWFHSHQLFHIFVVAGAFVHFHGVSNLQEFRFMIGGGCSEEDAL
Test: Competitive FP assay, displacement of probe 1 from AdipoR2
Format: binding, human
Conditions: read-out: IC50 vs AdipoR2 (µM) Validated; validation; 2 µM receptor, 100 nM probe 1, 30 min, 25°C
Parameter: IC50

Returns the measured IC50 for the input compound. Input: O=c1cc(-c2ccccc2)oc2cc(O)cc(O)c12 [Compound 8, Chrysin]
> 5 µM

----------
Target: UniProt Q86V24
Sequence (Q86V24 1-386): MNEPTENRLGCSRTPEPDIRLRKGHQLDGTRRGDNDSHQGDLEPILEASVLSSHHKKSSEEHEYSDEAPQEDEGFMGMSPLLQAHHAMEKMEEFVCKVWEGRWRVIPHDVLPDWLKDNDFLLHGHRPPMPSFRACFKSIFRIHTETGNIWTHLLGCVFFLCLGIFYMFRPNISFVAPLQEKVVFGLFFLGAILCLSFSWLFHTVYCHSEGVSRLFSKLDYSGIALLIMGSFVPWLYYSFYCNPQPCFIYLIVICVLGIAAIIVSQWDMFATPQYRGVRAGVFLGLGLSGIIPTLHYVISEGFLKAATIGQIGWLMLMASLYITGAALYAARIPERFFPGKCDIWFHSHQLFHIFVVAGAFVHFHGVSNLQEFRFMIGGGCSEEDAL
Test: Competitive FP assay, displacement of probe 1 from AdipoR2
Assay type: binding, human
Conditions: validation; 2 µM receptor, 100 nM probe 1, 30 min, 25°C; read-out: IC50 vs AdipoR2 (µM) Validated
Parameter: IC50 (µM)
Form entry: value (µM) — number only.

Any idea what IC50 came out for CN(C)Cc1c[nH]c2ccccc12 [Compound 9, Gramine] on UniProt Q86V24?
3.2

Next compound up: COc1cc2c(c(OC)c1OC)-c1c(cc(OC)c(OC)c1OC)C[C@H](C)[C@H](C)C2 [Compound 4, Deoxyschizandrin]
3.2
